# Target Or Test System: human RORγ (Homo sapiens, UniProt P51449)
# Construct: from Ser253 to Lys518 for human RORγ; expressed in transfected cells; host or cells: CHO cells (transient co-transfection with pG5-Luc)
# Sequence (P51449 253-518): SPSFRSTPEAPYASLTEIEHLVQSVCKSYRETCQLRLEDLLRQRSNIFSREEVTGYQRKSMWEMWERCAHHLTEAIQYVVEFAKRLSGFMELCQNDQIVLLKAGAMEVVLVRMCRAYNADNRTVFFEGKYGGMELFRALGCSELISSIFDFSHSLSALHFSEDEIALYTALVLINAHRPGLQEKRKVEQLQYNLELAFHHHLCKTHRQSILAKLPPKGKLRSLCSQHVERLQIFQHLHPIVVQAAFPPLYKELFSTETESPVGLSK
# Assay Summary: In-vitro reporter gene assay for inhibitory activity against RORγ transcription, Test Method B (pFA/hRORγ LBD / pG5-Luc in CHO cells)
# Assay type: cell-based
# Run Parameters: luciferase reporter, CHO cells, 2 days
Listed below: EC50 values for each entry.
Just the number in µM, nothing appended.

These recorded examples may help you get a feel for the data.
- Compound: "CC1CC[C@@]2(c3ccc(CCC(C)(C)C)c(Cl)c3)NC(=O)N(C34CC(C(=O)O)(C3)C4)C=C2C1 (single isomer, unassigned) [Example 92]"
  EC50 (µM): 0.042
- Compound: "CC(C)(C)CCc1ccc([C@]23CCC(F)(F)CC2=CN(C24CC(C(=O)O)(C2)C4)C(=O)N3)cc1Cl (single isomer, unassigned)"
  EC50 (µM): 4.94
- Compound: "CC(C)C1CC[C@@]2(c3ccc(CCC(C)(C)C)c(Cl)c3)NC(=O)N(C34CC(C(=O)O)(C3)C4)C=C2C1 (single isomer, unassigned)"
  EC50 (µM): 0.053
- Compound: "C[C@H]1CCC2(c3ccc(C4C(C(C)(C)C)C4(F)F)c(Cl)c3)NC(=O)N(C34CC(C(=O)O)(C3)C4)C=C2[C@@H]1C (single isomer, unassigned) [Example 113]"
  EC50 (µM): 0.033

Below: the item to evaluate.
-- ask Which EC50 reading was recorded for the compound CC1C2=CN(C34CC(C(=O)O)(C3)C4)C(=O)N[C@@]2(c2ccc(CCC(C)(C)C)c(Cl)c2)CCC1(C)C (single isomer, unassigned) ?
-- reply 4.68
